src = ChEMBL document CHEMBL4699582

# EXPERIMENTAL TARGET: Acidic mammalian chitinase (Mus musculus)
# Sequence (Q91XA9 whole entry): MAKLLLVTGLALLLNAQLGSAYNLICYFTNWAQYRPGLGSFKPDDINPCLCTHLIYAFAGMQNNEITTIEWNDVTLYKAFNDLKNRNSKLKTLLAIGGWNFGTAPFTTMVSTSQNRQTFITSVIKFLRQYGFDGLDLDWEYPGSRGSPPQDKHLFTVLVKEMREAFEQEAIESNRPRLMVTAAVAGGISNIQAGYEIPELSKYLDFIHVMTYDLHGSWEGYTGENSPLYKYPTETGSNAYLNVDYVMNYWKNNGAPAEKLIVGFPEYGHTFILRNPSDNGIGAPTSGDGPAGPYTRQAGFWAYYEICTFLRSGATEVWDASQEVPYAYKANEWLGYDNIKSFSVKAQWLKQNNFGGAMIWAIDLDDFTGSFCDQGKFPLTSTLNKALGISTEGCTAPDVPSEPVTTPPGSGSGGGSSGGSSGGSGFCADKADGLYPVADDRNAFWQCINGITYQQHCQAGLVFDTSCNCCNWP
# ASSAY TEXT: Inhibition of full-length C-terminal his-tagged mouse AMCase expressed in expressed in CHO-K1 cells assessed as reduction in chitinolytic activity using 4-methylumbelliferyl-beta-D-N,N'-diacetylchitobioside hydrate as substrate after 60 mins by fluorometric assay
Measured IC50, listed per entry for reference.

Nc1nnc(N2CCC(N3C[C@H](CO)OC[C@@H]3Cc3ccc(Cl)cc3)CC2)[nH]1 = 6.7 nM
CC(C)[C@H]1CN(C2CCN(c3nc(N)n[nH]3)CC2)[C@@H](Cc2ccc(Cl)cc2)CO1 = 2.1 nM
CC(C)(O)[C@H]1CN(C2CCN(c3nc(N)n[nH]3)CC2)[C@@H](Cc2ccc(Cl)cc2)CO1 = 5.5 nM

Now for the compound whose IC50 we want.
Request: For C[C@@H]1CN(C2CCN(c3nnc(N)[nH]3)CC2)[C@@H](Cc2ccc(Cl)cc2)CO1 , what is its reported IC50?
Response: 1000 nM

====

# EXPERIMENTAL TARGET: Acidic mammalian chitinase (Mus musculus)
# ASSAY TEXT: Inhibition of full-length C-terminal his-tagged mouse AMCase expressed in expressed in CHO-K1 cells assessed as reduction in chitinolytic activity using 4-methylumbelliferyl-beta-D-N,N'-diacetylchitobioside hydrate as substrate after 60 mins by fluorometric assay
# Format: cell-based
PROPERTY LABEL: pIC50
Scale: negative log10 of molar concentration, which is what pIC50 denotes.

Use these answered entries as a reference point.
CC[C@H]1CN(C2CCN(c3nc(N)n[nH]3)CC2)[C@@H](Cc2ccc(Cl)cc2)CO1 = 8.89
COC[C@H]1CN(C2CCN(c3nc(N)n[nH]3)CC2)[C@@H](Cc2ccc(Cl)cc2)CO1 = 8.11
Nc1n[nH]c(N2CCC(N3CCNC(=O)[C@@H]3Cc3ccc(Cl)cc3)CC2)n1 = 4.66
CC(C)C[C@H]1CN(C2CCN(c3nnc(N)[nH]3)CC2)[C@@H](Cc2ccc(Cl)cc2)CO1 = 9.00
Nc1n[nH]c(N2CCC(N3CC(=O)NC[C@@H]3Cc3ccc(Cl)cc3)CC2)n1 = 6.18
CNC(=O)[C@H]1CN(C2CCN(c3nc(N)n[nH]3)CC2)[C@@H](Cc2ccc(Cl)cc2)CO1 = 8.11

Request: Fill blank: measured pIC50 of the compound Nc1nnc(N2CCC(N3CCS(=O)(=O)C[C@@H]3Cc3ccc(Cl)cc3)CC2)[nH]1 is ____.
Response: 5.52

Request: Given the compound Nc1nnc(N2CCC(N3Cc4ccccc4OC[C@@H]3Cc3ccc(Cl)cc3)CC2)[nH]1 , what is its reported pIC50?
Response: 7.23

Request: Consider the compound C[C@H]1CN(C2CCN(c3nc(N)n[nH]3)CC2)[C@@H](Cc2ccc(Cl)cc2)CO1 and give its measured pIC50.
Response: 8.11

====

# ASSAY TEXT: Volume of distribution at steady state in Beagle dog at 3 mg/kg, iv administered as single bolus dose measured upto 24 hrs by LC-MS/MS analysis
# Format: ADME, organism-based, Canis lupus familiaris
# TEST SETTINGS: in vivo, read-out: Vdss
PROPERTY LABEL: Vd (L/kg)
Note: unit L/kg is implicit; provide only the numeric part.

Request: State the recorded Vd for this entry: C[C@H]1CN(C2CCN(c3nc(N)n[nH]3)CC2)[C@@H](Cc2ccc(Cl)cc2)CO1
Response: 0.96
